Just for reference, patent US8580794B2 is where these values come from.

Field: pKi. Provide a value for each of the compounds that follow.
# target: GST-Bc1-2 (Homo sapiens, UniProt P10415)
# Sequence (P10415 whole entry): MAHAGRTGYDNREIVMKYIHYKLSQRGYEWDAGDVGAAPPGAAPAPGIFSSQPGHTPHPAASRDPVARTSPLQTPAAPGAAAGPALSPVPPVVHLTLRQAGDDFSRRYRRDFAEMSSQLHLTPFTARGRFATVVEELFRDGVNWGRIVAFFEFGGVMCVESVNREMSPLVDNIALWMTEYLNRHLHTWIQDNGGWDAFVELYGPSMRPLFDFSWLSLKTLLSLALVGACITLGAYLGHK
# assay.name: Time Resolved-Fluorescence Resonance Energy Transfer (TR-FRET) Bcl-2 binding assay with F-Bak peptide probe
# condition.label: read-out: Bcl-2 FRET ki
Remember the convention: pKi equals -log10 of concentration in molar.

stdin: Requested field: pKi. Item: CC1(C)CCC(CN2CCN(c3ccc(C(=O)NS(=O)(=O)c4ccc(NCC5CCOCC5)c(S(=O)(=O)C(F)(F)F)c4)c(Oc4ccc5[nH]ccc5c4)c3)CC2)=C(c2ccc(Cl)cc2)C1
stdout: 9.17

stdin: // lookup pKi for O=C(NS(=O)(=O)c1ccc(NCC2CCOCC2)c([N+](=O)[O-])c1)c1ccc(N2CCN(Cc3ccccc3-c3ccc(Cl)cc3)CC2)cc1Oc1ccc2[nH]ccc2c1
stdout: 9.21

stdin: Given the entry CC1(C)CCC(CN2CCN(c3ccc(C(=O)NS(=O)(=O)c4ccc(OCC5COCCO5)c([N+](=O)[O-])c4)c(Oc4ccc5[nH]ccc5c4)c3)CC2)=C(c2ccc(Cl)cc2)C1 (stereo not drawn) , report its measured pKi.
stdout: 9.89

###

# target: GST-Bc1-2 (Homo sapiens)
# assay.name: Time Resolved-Fluorescence Resonance Energy Transfer (TR-FRET) Bcl-2 binding assay with F-Bak peptide probe
# condition.label: GST-Bcl-2 1 nM, F-Bak probe 100 nM, Tb-anti-GST 1 nM; '<' = below limit of detection; read-out: TR-FRET Bcl-2 Binding Ki
assay.endpoint: Ki (nM)
Provide the reading as a plain figure in nM.

stdin: GET /values?readout=Ki&item= CC1(C)CCC(CN2CCN(c3ccc(C(=O)NS(=O)(=O)c4ccc(N[C@H]5CCN(CC(F)F)C5)c([N+](=O)[O-])c4)c(Oc4cnc5[nH]ccc5c4)c3)CC2)=C(c2ccc(Cl)cc2)C1
stdout: 0.068

stdin: Please look up its Ki: CC1(C)CCC(CN2CCN(c3ccc(C(=O)NS(=O)(=O)c4ccc(NCC5COCCN5C5CCC5)c([N+](=O)[O-])c4)c(Oc4cnc5[nH]ccc5c4)c3)CC2)=C(c2ccc(Cl)cc2)C1 (centres unmarked)
stdout: 0.022

stdin: I would be grateful if you could share the reported Ki for O=C(NS(=O)(=O)c1cnc(OCC2(F)CCOCC2)c(Cl)c1)c1ccc(N2CCC(F)(Cc3ccccc3-c3ccc(Cl)cc3)CC2)cc1Oc1cnc2[nH]ccc2c1 .
stdout: 0.031

###

# target: GST-Bc1-2 (Homo sapiens)
# assay.name: Time Resolved-Fluorescence Resonance Energy Transfer (TR-FRET) Bcl-2 binding assay with F-Bak peptide probe
# condition.label: GST-Bcl-2 1 nM, F-Bak probe 100 nM, Tb-anti-GST 1 nM; '<' = below limit of detection; read-out: TR-FRET Bcl-2 Binding Ki
assay.endpoint: Ki

stdin: Consider the compound CC1(C)CCC(CN2CCN(c3ccc(C(=O)NS(=O)(=O)c4ccc(NCC(F)(F)F)c([N+](=O)[O-])c4)c(Oc4cnc5[nH]ccc5c4)c3)CC2)=C(c2ccc(Cl)cc2)C1 [Example 26] and give its measured Ki.
stdout: 0.011 nM

stdin: Given CC1(C)CC(c2ccc(Cl)cc2)=C(CN2CCN(c3ccc(C(=O)NS(=O)(=O)c4ccc(N[C@H]5CC[C@@H](N6CCOCC6)CC5)c([N+](=O)[O-])c4)c(Oc4cnc5[nH]ccc5c4)c3)CC2)CO1 [Example 63] , state its recorded Ki.
stdout: < 0.01 nM

stdin: // query Ki value for entry CC1(C)CCC(CN2CCN(c3ccc(C(=O)NS(=O)(=O)c4cnc(OCC5(F)CCN(C(CF)CF)CC5)c(Cl)c4)c(Oc4cnc5[nH]ccc5c4)c3)CC2)=C(c2ccc(Cl)cc2)C1 [Example 282]
stdout: < 0.01 nM

###

Answer each item with its documented pKi.
# target: GST-Bc1-2 (Homo sapiens)
# assay.name: Time Resolved-Fluorescence Resonance Energy Transfer (TR-FRET) Bcl-2 binding assay with F-Bak peptide probe
# condition.label: GST-Bcl-2 1 nM, F-Bak probe 100 nM, Tb-anti-GST 1 nM; '<' = below limit of detection; read-out: TR-FRET Bcl-2 Binding Ki
Hey, just a heads up that pKi is the negative log base 10 of the concentration in molar.

stdin: Dear colleague, I am looking for the recorded pKi of the following compound: COCC1CCN(C(=O)Nc2ccc(S(=O)(=O)NC(=O)c3ccc(N4CCN(CC5=C(c6ccc(Cl)cc6)CC(C)(C)CC5)CC4)cc3Oc3cnc4[nH]ccc4c3)cc2Cl)CC1 [Example 395]
stdout: 9.59

stdin: Request the reported pKi associated with COC1(Cc2ccccc2-c2ccc(Cl)cc2)CCN(c2ccc(C(=O)NS(=O)(=O)c3cnc(OCC4(F)CCOCC4)c(Cl)c3)c(Oc3cnc4[nH]ccc4c3)c2)CC1 [Example 263]
stdout: 9.81

stdin: Entry under review: CC1(C)CCC(CN2CCN(c3ccc(C(=O)NS(=O)(=O)c4ccc(NCCC(F)(F)F)c([N+](=O)[O-])c4)c(Oc4cnc5[nH]ccc5c4)c3)CC2)=C(c2ccc(Cl)cc2)C1 [Example 27] . Reported pKi?
stdout: 9.87

stdin: Requested read-out: pKi. Entry: CC1(C)CCC(CN2CCN(c3ccc(C(=O)NS(=O)(=O)c4ccc(OCC5(F)CCOCC5)c(C#N)c4)c(Oc4cnc5[nH]ccc5c4)c3)CC2)=C(c2ccc(Cl)cc2)C1 [Example 299]
stdout: 10.41

stdin: Give its pKi value. Item: CCN(C)C(=O)N1CCO[C@H](COc2ncc(S(=O)(=O)NC(=O)c3ccc(N4CCN(CC5=C(c6ccc(Cl)cc6)CC(C)(C)CC5)CC4)cc3Oc3cnc4[nH]ccc4c3)cc2Cl)C1 [Example 334]
stdout: 9.24

stdin: Field request: pKi | item: COC1(COc2ccc(S(=O)(=O)NC(=O)c3ccc(N4CCN(CC5=C(c6ccc(Cl)cc6)CC(C)(C)CC5)CC4)cc3Oc3cnc4[nH]ccc4c3)cc2[N+](=O)[O-])CCOCC1 [Example 234]
stdout: 9.94

stdin: Which pKi value belongs to CC1(C)CCC(CN2CCN(c3ccc(C(=O)NS(=O)(=O)c4ccc(OCC5CN(C6CC6)CCO5)c(Cl)c4)c(Oc4cnc5[nH]ccc5c4)c3)CC2)=C(c2ccc(Cl)cc2)C1 (stereo not shown) [Example 331] ?
stdout: 8.96

stdin: What measured pKi goes with CC1(C)CCC(CN2CCN(c3ccc(C(=O)NS(=O)(=O)c4ccc(NN5CCN(C(=O)OC(C)(C)C)CC5)c([N+](=O)[O-])c4)c(Oc4cnc5[nH]ccc5c4)c3)CC2)=C(c2ccc(Cl)cc2)C1 [Example 232] ?
stdout: 8.79

stdin: Entry CC1(C)CCC(CN2CCN(c3ccc(C(=O)NS(=O)(=O)c4cnc(NC5CCN(C6CC6)CC5)c(Cl)c4)c(Oc4cnc5[nH]ccc5c4)c3)CC2)=C(c2ccc(Cl)cc2)C1 [Example 243] has what pKi?
stdout: 9.26

stdin: # query: pKi of entry CC1(C)CCC(CN2CCN(c3ccc(C(=O)NS(=O)(=O)c4ccc(NCC5CCOCC5)c(S(=O)(=O)C(F)(F)F)c4)c(Oc4cnc5[nH]ccc5c4)c3)CC2)=C(c2ccc(Cl)cc2)C1 [Example 17]
stdout: 10.05

###

# target: GST-Bc1-2 (Homo sapiens, UniProt P10415)
# assay.name: Time Resolved-Fluorescence Resonance Energy Transfer (TR-FRET) Bcl-2 binding assay with F-Bak peptide probe
# condition.label: GST-Bcl-2 1 nM, F-Bak probe 100 nM, Tb-anti-GST 1 nM; '<' = below limit of detection; read-out: TR-FRET Bcl-2 Binding Ki
assay.endpoint: pKi
On this scale, pKi is minus log10 of a concentration expressed in M (mol/L).

stdin: Can you look up the measured pKi of CCN1CCOCC1COc1ncc(S(=O)(=O)NC(=O)c2ccc(N3CCN(CC4=C(c5ccc(Cl)cc5)CC(C)(C)CC4)CC3)cc2Oc2cnc3[nH]ccc3c2)cc1Br (stereo not drawn) for me?
stdout: 10.03

stdin: Need pKi of CC1(C)CCC(CN2CCN(c3ccc(C(=O)NS(=O)(=O)c4cnc(OCC5(F)CCOCC5)c(C(F)(F)F)c4)c(Oc4cnc5[nH]ccc5c4)c3)CC2)=C(c2ccc(Cl)cc2)C1 , thanks.
stdout: 9.98

###

Assign log10(EC50) to each entry below.
# Test system: RS4;11 cells
# assay.name: RS4;11 Cell Viability Assay (CellTiter Glo);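 note: RS4,11 acute lymphoblastic leukemia cells, viability as percent of untreated control cells, EC50 for loss of viable cells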
# Format: cell-based
# condition.label: Homo sapiens, RS4-11, 48 h, 50,000 cells per well, 10% human serum
The figures below represent log10 of EC50, where EC50 is stated in nM.

stdin: What value of log10(EC50) has been recorded for this entry: CC1(C)CCC(CN2CCN(c3ccc(C(=O)NS(=O)(=O)c4ccc(OC[C@H]5CC[C@H](O)CC5)c([N+](=O)[O-])c4)c(Oc4cnc5[nH]ccc5c4)c3)CC2)=C(c2ccc(Cl)cc2)C1
stdout: 0.24

stdin: What value of log10(EC50) has been reported for the following compound? CC1(C)CCC(CN2CCN(c3ccc(C(=O)NS(=O)(=O)c4ccc(NC(=O)N5CCC(N6CCOCC6)CC5)c(Cl)c4)c(Oc4cnc5[nH]ccc5c4)c3)CC2)=C(c2ccc(Cl)cc2)C1
stdout: 2.74

stdin: Would you kindly share the measured log10(EC50) for CC1(C)CCC(CN2CCN(c3ccc(C(=O)NS(=O)(=O)c4ccc(NN5CCS(=O)(=O)CC5)c([N+](=O)[O-])c4)c(Oc4cnc5[nH]ccc5c4)c3)CC2)=C(c2ccc(Cl)cc2)C1 ?
stdout: 1.79

stdin: Entry CC1(C)CCC(CN2CCN(c3ccc(C(=O)NS(=O)(=O)c4ccc(NC(=O)N5CCC(C)(O)CC5)c(Cl)c4)c(Oc4cnc5[nH]ccc5c4)c3)CC2)=C(c2ccc(Cl)cc2)C1 has what log10(EC50)?
stdout: 2.66

stdin: What does the record list as log10(EC50) for CC1(C)CCC(CN2CCN(c3ccc(C(=O)NS(=O)(=O)c4cnc(OCC5CCC6(CC5)CNC(=O)O6)c(Cl)c4)c(Oc4cnc5[nH]ccc5c4)c3)CC2)=C(c2ccc(Cl)cc2)C1 (single isomer, unassigned) [Example 396] ?
stdout: 1.92

stdin: Sample COC[C@H]1CC[C@H](CNc2ccc(S(=O)(=O)NC(=O)c3ccc(N4CCN(CC5=C(c6ccc(Cl)cc6)CC(C)(C)CC5)CC4)cc3Oc3cnc4[nH]ccc4c3)cc2[N+](=O)[O-])CC1 — what was its log10(EC50)?
stdout: 1.09

stdin: Need log10(EC50) of O=C(NS(=O)(=O)c1ccc(NCC2CCOCC2)c([N+](=O)[O-])c1)c1ccc(N2CCN(CC3=C(c4ccc(Cl)cc4)CCCC3)CC2)cc1Oc1cnc2[nH]ccc2c1 , thanks.
stdout: 1.53
